Please respond with reported plant injury at 500 g/ha for every item in the list.
test system: corn (Zea mays); experiment: Test A postemergence; type: in vivo; details: Zea mays, post-emergence, 240 h, 500 g ai/ha, postemergence; 0 to 100 scale, 0 is no effect, 100 is complete control; read-out: Corn plant response rating
One number for each entry, in %.

* CN1CC[C@H](c2ccc(C(F)(F)F)cc2)[C@@H](C(=O)Nc2cccc(F)c2F)C1=O | 90
* O=C1NCC[C@H](c2cccc(Cl)c2)[C@H]1C(=O)Nc1ccccc1F | 20

Take each entry in turn and give its plant injury at 500 g/ha.
1. O=C1NC[C@H](c2ccc(F)c(OC(F)(F)C(F)F)c2)[C@H]1C(=O)Nc1ccccc1F
2. N#Cc1cc([C@H]2CNC(=O)[C@]2(O)C(=O)Nc2ccccc2F)ccc1F
3. Cc1cc([C@H]2CNC(=O)[C@@H]2C(=O)Nc2ccccc2C(F)(F)F)ccc1Cl
4. CN1C[C@H](c2ccc(F)c(Br)c2)[C@@H](C(=O)Nc2cccc(F)c2F)C1=O
5. Cc1cc([C@H]2CN(C)C(=O)[C@@H]2C(=O)Nc2ccccc2F)ccc1Br
6. CC(C)Oc1ccc([C@H]2CNC(=O)[C@@H]2C(=O)Nc2ccccc2F)cc1
7. O=C1NC[C@H](c2ccc(F)c(OC(F)(F)C(F)F)c2)[C@H]1C(=O)Nc1ccc(F)cc1F (racemic)
8. CCc1cc(CC)cc([C@H]2CNC(=O)[C@@H]2C(=O)Nc2ccccc2F)c1

Key:
[80, 0, 0, 100, 70, 0, 90, 80]

====

system: corn (Zea mays); experiment: Test C preemergence; type: in vivo; settings: 250 g ai/ha, scale 0 to 100, 0 no effect, 100 complete control
RECORDED ENDPOINT: Plant response rating, Corn
Numbers only.

* CN1CC(c2cccc(C(F)(F)F)c2)C(C(=O)Nc2cccc(F)c2F)C1=O (stereo not shown) | 90
* Cc1ccc(C2CN(C)C(=O)C2C(=O)Nc2cccc(F)c2F)cc1F (stereo not shown) | 90
* O=C1NCC(c2cc(F)cc(Cl)c2)C1C(=O)Nc1cccc(F)c1F (stereo not shown) | 85

Exercise: Name the recorded Plant response rating, Corn for Cc1cccc(C2CN(C)C(=O)C2C(=O)Nc2cccc(F)c2F)c1 (stereo not shown) .
Key: 85

====

system: wheat (Triticum aestivum); test: Test A postemergence; format: in vivo; conditions: Triticum aestivum, post-emergence, 240 h, 125 g ai/ha, Postemergence; visual injury after approximately 10 d; 0 to 100 scale where 0 is no effect and 100 is complete control; read-out: Plant response rating, Wheat
Excerpt: […]
Please respond with reported plant injury at 125 g/ha for every item in the list.
One number for each entry, in %.

- O=C(Nc1cccc(F)c1F)[C@H]1C(=O)N(OCc2ccccc2)CC[C@@H]1c1cccc(Cl)c1: 0

Take each entry in turn and give its plant injury at 125 g/ha.
1. CC(C)COc1cccc([C@H]2CNC(=O)[C@@H]2C(=O)Nc2ccccc2F)c1
2. COc1cc(OC)cc([C@H]2CN(C)C(=O)[C@@H]2C(=O)Nc2ccccc2SC)c1
3. O=C1NC[C@H](c2cc(C(F)(F)F)cs2)[C@H]1C(=O)Nc1cccc(F)c1F
4. CCOc1cccc([C@H]2CNC(=O)[C@@H]2C(=O)Nc2ccccc2F)c1
5. Cc1ccc(NC(=O)[C@H]2C(=O)N(C)C[C@@H]2c2cc(F)cc(F)c2)cc1
6. CN1C[C@H](c2ccc(C(F)(F)F)cc2)[C@@H](C(=O)Nc2ccccc2[S+](C)[O-])C1=O (stereo partly drawn)
7. CSc1ccccc1NC(=O)[C@H]1C(=O)N(C)C[C@@H]1c1cc(C)c(Br)c(C)c1
8. COc1ccc([C@H]2CN(C)C(=O)[C@@H]2C(=O)Nc2ccccc2F)cc1C(F)(F)F

Key:
[0, 0, 0, 0, 0, 40, 0, 20]

====

tested on: ivy-leaved morning glory (Ipomoea hederacea); assay: Test G Pre-Emergence Protocol; format: in vivo; settings: Ipomoea, pre-emergence, 312 h, 62.5 g ai/ha, evaluated after 13 days, 100=total damage to plant, 0=no damage to plant, read-out: Morningglory, Ivy-leaved damage rating
Please respond with reported pest or weed control at 62.5 g/ha for every item in the list.
One number for each entry, in %.

# count of solved cases: 2
- CON1C[C@@H](c2cccc(C(F)(F)F)c2)[C@H](C(=O)Nc2cccc(F)c2F)C1=O (racemic) [Compound 1763]: 0
- Cc1ccc(C2CN(C)C(=O)C2C(=O)Nc2cccc(F)c2F)cc1C#N (stereo not shown) [Compound 1687]: 40

Take each entry in turn and give its pest or weed control at 62.5 g/ha.
1. CN1C[C@H](c2ccc(C#N)c(C(F)(F)F)c2)[C@@H](C(=O)Nc2ccccc2S(C)(=O)=O)C1=O (racemic) [Compound 1796]
2. CN1C[C@H](c2cccc(C(F)F)c2)[C@@H](C(=O)Nc2ccccc2S(C)(=O)=O)C1=O (racemic) [Compound 1800]

Key:
0
0

====

system: ragweed (common ragweed, Ambrosia elatior); assay: Test A preemergence; assay type: in vivo; details: Ambrosia artemisiifolia, pre-emergence, 240 h, 125 g ai/ha, Preemergence, visual injury rating after approximately 10 d; read-out: Ragweed plant response rating (0 to 100 scale, 0 is no effect, 100 is complete control)
Please respond with reported pest or weed control at 125 g/ha for every item in the list.
Give bare numbers, in %.

# count of solved cases: 6
* Cc1ccc([C@H]2CN(C)C(=O)[C@@H]2C(=O)Nc2cccc(F)c2C)cc1Cl | 0
* CC(C)COc1cccc([C@H]2CN(C)C(=O)[C@@H]2C(=O)Nc2ccc(F)cc2F)c1 | 0
* O=C1NC[C@H](c2ccc3c(c2)OCO3)[C@H]1C(=O)Nc1ccc(F)cc1F | 50
* O=C1NC[C@H](c2cc(C(F)(F)F)cs2)[C@H]1C(=O)Nc1cccc(F)c1F | 60
* CCOc1cccc([C@H]2CN(C)C(=O)[C@@H]2C(=O)Nc2ccc(F)cc2F)c1 | 0
* CSc1ccccc1NC(=O)[C@H]1C(=O)N(C)C[C@@H]1c1cc(C)c(Br)c(C)c1 | 0

Below: the item to evaluate.
Exercise: Name the recorded pest or weed control at 125 g/ha for Cc1cc([C@H]2CNC(=O)[C@@H]2C(=O)Nc2ccccc2S(C)(=O)=O)ccc1C(F)(F)F .
Key: 20

====

test system: Galium (catchweed bedstraw, Galium aparine); experiment: Test A postemergence; format: in vivo; settings: Galium, post-emergence, 240 h, 125 g ai/ha, Postemergence; visual injury after approximately 10 d; 0 to 100 scale where 0 is no effect and 100 is complete control; read-out: Plant response rating, Galium
If the reported pest or weed control at 125 g/ha equals or exceeds 30%, assign TRUE. If not, assign FALSE.

* Cc1ccc(NC(=O)[C@H]2C(=O)N(C)C[C@@H]2c2cc(F)cc(F)c2)cc1 | FALSE
* CN1C[C@H](c2ccc(C(F)(F)F)cc2)[C@@H](C(=O)Nc2ccccc2[S+](C)[O-])C1=O (stereo partly drawn) | TRUE
* Cc1cc([C@H]2CN(C)C(=O)[C@@H]2C(=O)Nc2ccc(F)cc2F)ccc1Cl | TRUE
* CN1C[C@H](c2ccc(C(F)(F)F)cc2)[C@@H](C(=O)Nc2ccc(F)cc2C(F)(F)F)C1=O | TRUE
* CN1C[C@H](c2ccc(C(F)(F)F)cc2)[C@@H](C(=O)Nc2ccc(F)cc2Br)C1=O | TRUE
* CN1C[C@H](c2ccc(C(F)(F)F)cc2)[C@@H](C(=O)Nc2ccccc2Br)C1=O | TRUE
* CC(=O)Oc1ccc(F)c(NC(=O)[C@H]2C(=O)N(C)C[C@@H]2c2cc(F)cc(F)c2)c1 | FALSE
* Cc1c(F)cccc1NC(=O)[C@H]1C(=O)N(C)C[C@@H]1c1cc(F)cc(C(F)(F)F)c1 | TRUE

Exercise: Determine whether this compound has pest or weed control at 125 g/ha no lower than 30%: CCOc1cccc([C@H]2CNC(=O)[C@@H]2C(=O)Nc2ccccc2F)c1
Key: FALSE

====

test system: waterhemp (common waterhemp, Amaranthus rudis); experiment: Test C preemergence; format: in vivo; conditions: 250 g ai/ha, scale 0 to 100, 0 no effect, 100 complete control
Please respond with reported Plant response rating, Waterhemp for every item in the list.
One number for each entry.

# count of solved cases: 3
- O=C1NCC(c2cc(F)cc(Cl)c2)C1C(=O)Nc1cccc(F)c1F (centres unmarked): 65
- CN1CC(c2cccc(OC(F)(F)C(F)F)c2)C(C(=O)Nc2ccc(F)cc2F)C1=O (centres unmarked): 90
- CN1C[C@H](c2ccc(C(F)(F)F)cc2)[C@@H](C(=O)Nc2ccccc2F)C1=O: 90

Take each entry in turn and give its Plant response rating, Waterhemp.
1. CN1C[C@H](c2ccc(F)c(F)c2)[C@@H](C(=O)Nc2cccc(F)c2F)C1=O
2. CN1CC(c2ccc(F)c(C(F)(F)F)c2)C(C(=O)Nc2cccc(F)c2F)C1=O (centres unmarked)

Key:
80
90
